meta.source: patent US20230357233A1

Hi there, I'd appreciate the recorded GI50 for every entry that follows.
SYSTEM_NAME: Ba/F3_KRAS^G12D cells (Homo sapiens, UniProt P01116, G12D, cells depend on it)
Sequence (P01116 whole entry G12D): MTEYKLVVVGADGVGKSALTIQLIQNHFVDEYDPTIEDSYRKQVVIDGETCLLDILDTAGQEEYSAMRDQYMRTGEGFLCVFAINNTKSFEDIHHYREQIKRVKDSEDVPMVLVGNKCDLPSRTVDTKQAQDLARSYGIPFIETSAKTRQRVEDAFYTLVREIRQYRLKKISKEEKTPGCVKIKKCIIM
PROCEDURE_DETAILS: Ba/F3 KRAS^G12D cell proliferation assay (cell-titer Glo)
Assay type: cell-based
SETTINGS: cell growth inhibition, treated with the compounds for 3 days, read-out: BaF3_KRAS^G12D IC50
Protocol: Cells were seeded at a density of 5×10^3 per well into 96-well plate and incubated overnight. Serial diluted compounds were added to each well. Cells were treated with the compounds for 3 days, after which cell-titer Glo reagent (Promega #G7572) was used to assess cell proliferation. The luminescence signal was then collected on Tecan Spark plate reader. […] Cell growth inhibition of IC50 is calculated with the equation of Y=Bottom+(Top−Bottom)/(1+10^((LogIC50−X)*HillSlope))

Example cases with answers are listed next.
CCOc1nc(-c2cc(O)cc3ccc(F)c(Cl)c23)c(F)c2nc(OC[C@@]34CCCN3C[C@H](F)C4)nc(N3CC4CCC(C3)N4)c12 : < 500 nM
Oc1cc(-c2ncc3c(N4CC5CCC(C4)N5)nc(OC[C@@]45CCCN4C[C@H](F)C5)cc3n2)c2ccccc2c1 : 500 to 5000 nM
CN(C)CCCn1c(=O)nc(N2CC3CCC(C2)N3)c2cc(F)c(-c3cccc4cccc(Cl)c34)nc21 : > 5000 nM

Fill in GI50 for each of the 3 compounds listed.
1. C#Cc1c(F)ccc2cc(O)cc(-c3nc(OCC(F)F)c4c(N5CC6CCC(C5)N6)nc(OC[C@@]56CCCN5C[C@H](F)C6)nc4c3F)c12
2. C#Cc1c(F)ccc2cc(O)cc(-c3nc(OC(C)C)c4c(N5CC6CCC(C5)N6)nc(OC)nc4c3F)c12
3. C#Cc1c(F)ccc2cc(O)cc(-c3nc(OC(C)C)c4c(N5CC6CCC(C5)N6)nc(OCC5(CN6CCN(C(=O)OC)CC6)CC5)nc4c3F)c12

1. < 500 nM
2. < 500 nM
3. < 500 nM

----------
For each entry below, report its GI50 value.
SYSTEM_NAME: Ba/F3_KRAS^G12D cells (Homo sapiens, UniProt P01116, G12D, cells depend on it)
PROCEDURE_DETAILS: Ba/F3 KRAS^G12D cell proliferation assay (cell-titer Glo)
Assay type: cell-based
SETTINGS: cell growth inhibition, treated with the compounds for 3 days, read-out: BaF3_KRAS^G12D IC50

CN(C)CCCOc1nc(N2CC3CCC(C2)N3)c2cc(Cl)c(-c3cccc4ccccc34)nc2n1 : > 5000 nM
Cc1nc(-c2cc(O)cc3cccc(C(F)(F)F)c23)c(F)c2nc(OC[C@@]34CCCN3C[C@H](F)C4)nc(N3CC4CCC(C3)N4)c12 : < 500 nM
CN(C)CCOc1nc(N2CC3CCC(C2)N3)c2cc(F)c(-c3ccccc3F)nc2c1-c1cccnc1C1CC1 : 500 to 5000 nM
C#Cc1c(F)ccc2cc(O)cc(-c3nc(OC(C)C)c4c(N5CC6CCC(C5)N6)nc(N(C)C)nc4c3F)c12 : 500 to 5000 nM
Oc1cc(-c2ncc3c(N4CC5CCC(C4)N5)nc(OCC45CCCN4CCC5)cc3n2)c2c(Cl)cccc2c1 : > 5000 nM
C#Cc1c(F)ccc2c(F)c(N)cc(-c3nc(OC(C)C)c4c(N5CC6CCC(C5)N6)nc(OC[C@@]56CCCN5C[C@H](F)C6)nc4c3F)c12 : < 500 nM

Next molecule, please.
Fill in: GI50 of `Cc1cc2c(N3CC4CCC(C3)N4)nc(OCC34CCCN3CCC4)nc2c(=O)n1-c1cccc2ccccc12` is ___ 500 to 5000 nM
